Every entry's value here was drawn from PubChem BioAssay (NCI).

# assay summary: NCI Yeast Anticancer Drug Screen. Data for the rad50 strain (AID 155);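 further: 0% = growth of vehicle-only cultures of the same strain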
# details: S. cerevisiae rad50 strain growth inhibition; at 1.2 µM; stronger effect = higher value
Compounds without any hit were thinned out: in the full panel of roughly 79,000, 15% have a hit.
Let's look at some compounds and their measured growth inhibition.
API: value field is a number in %; no unit string.

CC(C)(C)N=C(NO)c1ccccc1: -2
CCN(CC)CCOc1cc(C)c2cc(Cc3ccccc3)ccc2n1: -40
CN(C)CCOC1(Cc2ccc(F)cc2)CCC(C(C)(C)C)CC1 (stereo unspecified): -10
CCc1c(Cl)c(C)cc(O)c1Cl: -27
CCCC/C([O-])=C1/C(=O)N(c2ccccc2)N=C1C.CCCC/C([O-])=C1/C(=O)N(c2ccccc2)N=C1C.[Cu+2]: 1
CC[n+]1oc(C(=O)c2ccc(Cl)cc2)c(-c2ccccc2)c1-c1ccccc1.[Cl][Fe]([Cl])([Cl])[Cl]: 5

Q: # return recorded growth inhibition for input "NC(=S)NC(=S)Nc1ccccc1"
Ans: 0

Q: // fetch growth inhibition given entry "c1ccc(Cc2cc(-c3ccccc3)n[nH]2)cc1"
Ans: -10

Q: For the compound Nc1nc2ccc(NCc3ccc(C(=O)NC(CCC(=O)O)C(=O)O)cc3)cc2c(=O)[nH]1 (stereo unspecified) , give its measured growth inhibition value.
Ans: 7

Q: Provide measured growth inhibition value, entry: COC(=O)CCC(NC(=S)N/N=C(\C)c1ccccn1)C(=O)OC (stereo unspecified)
Ans: 8

Q: Give reported growth inhibition value for "Nc1ncc(-c2ccc(Br)cc2)s1"
Ans: 7
